Data origin: patent US9321753B2

- System: HCV replicon
- Protocol Details: HCV replicon assay in human hepatoma Huh-7 cell line (luciferase readout)
- Assay type: cell-based
- Run Conditions: Hepatitis C virus, Huh-7, 72 h, 2 μM; Huh-7 HCV replicon cells, 3 days incubation; inhibition of viral replication; read-out: % inhibition at 2 μM
- Protocol: The anti-HCV activity of the compounds of this invention was tested in a human hepatoma Huh-7 cell line harboring a HCV replicon. The assay comprised the following steps: Serial dilution was performed in 100% DMSO in a 384-well plate. […] The percent cytotoxicity was determined by calcein AM conversion to fluorescent product. […] The percent anti-HCV replication activity was determined by the luminescence signal from the testing well compared to DMSO controls wells. […]
Parameter Measured: inhibition at 2 µM (%)

>>> test_result("CC1=CC[C@@H](C(=O)N(c2cc(C#CC(C)(C)C)sc2C(=O)O)[C@H]2CC[C@](O)(CO[C@H]3CCOC3)CC2)CC1 [Compound 8]")
99.9
>>> test_result("CC(C)(C)C#Cc1cc(N(C(=O)[C@H]2CC[C@H](C)CC2)[C@H]2CC[C@](O)(CO[C@H]3CCOC3)CC2)c(C(=O)O)s1 [Compound 3]")
100
>>> test_result("COC(=O)c1sc(C#CC(C)(C)C)cc1N(C(=O)[C@H]1CC=C(C)C[C@@H]1C)[C@H]1CC[C@](O)(CO[C@H]2CCOC2)CC1 [Compound 17]")
78.8
>>> test_result("CC1=CC[C@@H](C(=O)N(c2cc(C#CC(C)(C)C)sc2C(=O)O)[C@H]2CC[C@](O)(CO[C@@H]3CCOC3)CC2)CC1 [Compound 7]")
100
>>> test_result("CC1=CCC(C(=O)N(c2cc(C#CC(C)(C)C)sc2C(=O)O)[C@H]2CC[C@](O)(CO[C@H]3CCOC3)CC2)[C@@H](C)C1 (some centres unmarked) [Compound 6]")
99.9
>>> test_result("CC1=CC[C@H](C(=O)N(c2cc(C#CC(C)(C)C)sc2C(=O)O)[C@H]2CC[C@](O)(CO[C@H]3CCOC3)CC2)CC1 [Compound 9]")
100
>>> test_result("CC1=CC[C@H](C(=O)N(c2cc(C#CC(C)(C)C)sc2C(=O)O)[C@H]2CC[C@](O)(CO[C@@H]3CCOC3)CC2)[C@@H](C)C1 [Compound 18]")
100
>>> test_result("CC1=CCC(C(=O)N(c2cc(C#CC(C)(C)C)sc2C(=O)O)[C@H]2CC[C@](O)(CO[C@H]3CCOC3)CC2)[C@H](C)C1 (single isomer, unassigned) [Compound 5A]")
100

----------
- System: HCV replicon
- Protocol Details: HCV replicon assay in human hepatoma Huh-7 cell line (luciferase readout)
- Format: cell-based
- Run Conditions: Hepatitis C virus, Huh-7, 72 h, 2 μM; Huh-7 HCV replicon cells, 3 days incubation; inhibition of viral replication; read-out: % inhibition at 2 μM
Parameter Measured: inhibition at 2 µM (%)

>>> test_result("CC1=CC[C@H](C(=O)N(c2cc(C#CC(C)(C)C)sc2C(=O)O)[C@H]2CC[C@](O)(CO[C@@H]3CCOC3)CC2)CC1 [Compound 10]")
100
>>> test_result("CC(C)(C)C#Cc1cc(N(C(=O)[C@H]2CC[C@H](C)CC2)[C@H]2CC[C@](O)(CO[C@@H]3CCOC3)CC2)c(C(=O)O)s1 [Compound 2]")
100
>>> test_result("CC(C)(C)C#Cc1cc(N(C(=O)[C@H]2CC[C@H](C)CC2)C2CCC(O)(COc3cccnc3)CC2)c(C(=O)O)s1 (stereo partly drawn) [Compound 1]")
99.9
>>> test_result("CC(C)(C)C#Cc1cc(N(C(=O)[C@H]2CC[C@H](C)CC2)[C@H]2CC[C@@](O)(CO[C@H]3CCOC3)CC2)c(C(=O)O)s1 [Compound 4]")
99.6
>>> test_result("[2H]C([2H])([2H])C(C#Cc1cc(N(C(=O)[C@H]2CC=C(C)CC2)C2CCC(O)(CO[C@H]3CCOC3)CC2)c(C(=O)O)s1)(C([2H])([2H])[2H])C([2H])([2H])[2H] (stereo partly drawn) [Compound 24]")
100
>>> test_result("CC1=CC[C@H](C(=O)N(c2cc(C#CC(C)(C)CO)sc2C(=O)O)[C@H]2CC[C@](O)(CO[C@H]3CCOC3)CC2)CC1 [Compound 29]")
100
